target: WRN helicase (aa N517-P1238) (Homo sapiens, UniProt Q14191); construct: The core helicase motif of the WRN protein (aa N517-P1238) was produced for this assay; His (N); ZZ (N); 3C protease cleavage site (N); virus and BIICs made in SF9); assay: WRN ATPase assay (DNA dependent ATP hydrolysis, ADP-Glo); conditions: 3 hours pre-incubation, 300 micromolar ATP, FLAP26 DNA; geometric mean of at least 2
Sequence (Q14191 517-1238): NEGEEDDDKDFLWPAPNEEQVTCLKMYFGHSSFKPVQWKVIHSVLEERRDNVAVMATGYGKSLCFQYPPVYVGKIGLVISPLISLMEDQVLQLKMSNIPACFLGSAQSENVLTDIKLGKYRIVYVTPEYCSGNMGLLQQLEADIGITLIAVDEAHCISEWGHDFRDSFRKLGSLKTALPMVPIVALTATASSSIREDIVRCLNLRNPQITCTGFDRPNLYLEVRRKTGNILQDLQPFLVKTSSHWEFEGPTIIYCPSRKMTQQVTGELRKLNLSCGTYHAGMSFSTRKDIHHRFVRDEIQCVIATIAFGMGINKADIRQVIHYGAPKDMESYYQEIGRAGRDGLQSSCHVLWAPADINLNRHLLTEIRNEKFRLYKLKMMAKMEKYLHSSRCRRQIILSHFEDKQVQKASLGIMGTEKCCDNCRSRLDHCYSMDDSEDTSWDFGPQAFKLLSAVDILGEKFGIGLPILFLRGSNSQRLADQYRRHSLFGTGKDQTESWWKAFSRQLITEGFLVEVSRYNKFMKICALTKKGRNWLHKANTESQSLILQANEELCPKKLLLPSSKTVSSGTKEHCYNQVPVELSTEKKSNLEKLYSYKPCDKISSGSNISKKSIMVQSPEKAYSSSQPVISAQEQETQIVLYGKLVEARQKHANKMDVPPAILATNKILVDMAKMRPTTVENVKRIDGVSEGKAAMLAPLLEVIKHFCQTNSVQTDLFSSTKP
quantity: pIC50
# log scale: pIC50 equals minus log10 of the concentration in mol/L

Exercise: Consider the compound CCc1c(N2CCN(C(=O)c3ncn(C)c3O)CC2)c(=O)n2nc(C3=CCOCC3)nc2n1CC(=O)Nc1ccc(C(F)(F)F)cc1Cl and give its measured pIC50.
Key: 6.52

Exercise: Look up pIC50 for this compound: Cc1c(N2CCN(C(=O)c3cc(F)ccc3O)CC2)c(=O)n2nc(N3CCOCC3)nc2n1CC(=O)Nc1ccc(C(F)(F)F)cc1
Key: 6.70

Exercise: Consider the compound CCc1c(N2CCN(C(=O)c3c(F)ccc(F)c3O)CC2)c(=O)n2nc(C3=CCOCC3)nc2n1CC(=O)Nc1ccc(C(F)(F)F)cc1C and give its measured pIC50.
Key: 7.70

These data points were gathered from patent US20260250289A1.
